assay: reversal of MRP1-mediated doxorubicin resistance, pilot screen, H69AR cells, doxorubicin co-treatment (AID 601); conditions: H69AR cells + 2 uM doxorubicin, CellTiter-Glo, 72 h; at 10 µM; active compounds read high
endpoint: differential viability (reversal) (%)
One number for each entry, in %.

These recorded examples may help you get a feel for the data.
Cc1[nH]nc(N=CC2=C(O)CC(C)(C)CC2=O)c1-c1ccccc1 ... -6.69
CCCCCn1c(CN2CCN(c3cccc(Cl)c3)CC2)nc2c1c(=O)n(C)c(=O)n2C ... 38.5
Cc1cc(O)c(NC(=O)c2ccc(Br)o2)cc1C ... -15
CCCCCC#CCC#CCC#CCC#CCCCC(=O)O ... -0.29

Items follow; give differential viability (reversal) for each.
1. Cc1cc(C)n(Cc2cc(C)c(Cn3nc(C)cc3C)cc2C)n1
2. COc1ccc(S(=O)(=O)Nc2ccccc2OC)cc1C

1. 12.2
2. -7.08

These entries and their values trace back to PubChem BioAssay.
